Recorded values, source ChEMBL document CHEMBL5236648.

# test-description: Cytotoxicity against human THP-1 cells assessed as cell viability at 5 uM incubated for 48 hrs by MTT assay relative to control
# Assay type: toxicity, cell-based
# conditions: read-out: Activity
experimental-endpoint: viability at 48 h, 5 µM (%)
Quick note: give the figure in %, leave out the unit.

**Q:** Would you mind telling me what viability at 48 h, 5 µM value was observed for C[S+]([O-])CCCCN=C=S (configuration not stated) ?
**A:** 84

**Q:** Consider next the molecule `COc1cc(CC/C=C/C(=O)CCc2ccccc2)ccc1O` in the same way.
**A:** 79

---

# test-description: Cytotoxicity against human THP-1 cells assessed as cell viability at 50 to 100 uM incubated for 48 hrs by MTT assay relative to control
experimental-endpoint: viability at 48 h, 100 µM

**Q:** What value of viability at 48 h, 100 µM has been recorded for this entry: C[S+]([O-])CCCCN=C=S (stereo unspecified)
**A:** < 45%
